Source of measurements: paper PMC9863562

- Test system: MCF-7 cells (mammary gland cancer)
- assay.summary: MTT cytotoxicity assay, MCF-7
- Format: cell-based
- experimental.parameters: Homo sapiens, MCF7, 24 h treatment, read-out: In Vitro Cytotoxicity IC50 MCF-7
metric.name: pIC50
The meaning of pIC50 here: minus log10 of the concentration in molar units.

Enquiry: Form field: reported pIC50 of O=C(CSc1nc2ccccc2o1)NN=Cc1cccs1 (mixture of isomers) [Compound 6a]
Return: 4.37

Enquiry: Form field: reported pIC50 of O=C(CSc1nc2ccccc2o1)NN=C1C(=O)Nc2ccccc21 [Compound 5a]
Return: 4.63

Enquiry: Form field: reported pIC50 of O=C(CSc1nc2ccccc2o1)NN=C1C(=O)Nc2ccc(F)cc21 [Compound 5f]
Return: 4.15

Enquiry: Form field: reported pIC50 of Cc1ccc2c(c1)C(=NNC(=O)CSc1nc3ccccc3o1)C(=O)N2 [Compound 5b]
Return: 4.56

Enquiry: Form field: reported pIC50 of O=C(CSc1nc2ccccc2o1)NN=Cc1ccc[nH]1 (mixture of isomers) [Compound 6b]
Return: 5.44

====

- System: MCF-7 cells (mammary gland cancer)
- assay.summary: MTT cytotoxicity assay, MCF-7
- Type: cell-based
- experimental.parameters: Homo sapiens, MCF7, 24 h treatment, read-out: In Vitro Cytotoxicity IC50 MCF-7
metric.name: pIC50
The meaning of pIC50 here: minus log10 of the concentration in molar units.

Enquiry: Form field: reported pIC50 of O=C(CSc1nc2ccccc2o1)NN=Cc1ccc(OC(F)(F)F)cc1 (mixture of isomers) [Compound 4b]
Return: 4.82

Enquiry: Form field: reported pIC50 of O=C(CSc1nc2ccccc2o1)NN=C1C(=O)Nc2ccc(Cl)cc21 [Compound 5e]
Return: 4.28

Enquiry: Form field: reported pIC50 of O=C(CSc1nc2ccccc2o1)NN=C1C(=O)Nc2ccc([N+](=O)[O-])cc21 [Compound 5c]
Return: 4.32

Enquiry: Form field: reported pIC50 of N#Cc1ccc(C=NNC(=O)CSc2nc3ccccc3o2)cc1 (mixture of isomers) [Compound 4c]
Return: 4.41

Enquiry: Form field: reported pIC50 of O=C(CSc1nc2ccccc2o1)NN=Cc1ccc(Cl)c(Cl)c1 (mixture of isomers) [Compound 4a]
Return: 4.13

Enquiry: Form field: reported pIC50 of COc1cc(C=NNC(=O)CSc2nc3ccccc3o2)ccc1O (mixture of isomers) [Compound 4d]
Return: 4.95

Enquiry: Form field: reported pIC50 of COc1ccc2c(c1)C(=NNC(=O)CSc1nc3ccccc3o1)C(=O)N2 [Compound 5d]
Return: 5.12

====

Provide the recorded IC50 for the entries that follow.
- Tested on: HepG2 cells (hepatocellular carcinoma)
- assay.summary: MTT cytotoxicity assay, HepG2
- Format: cell-based
- experimental.parameters: Homo sapiens, HepG2, 24 h, 24 h treatment, read-out: In Vitro Cytotoxicity IC50 HepG2
Only the number, expressed in µM, is required.

Enquiry: Give IC50 (HepG2 cells (hepatocellular carcinoma)) of the following molecule: COc1cc(C=NNC(=O)CSc2nc3ccccc3o2)ccc1O (mixture of isomers) [Compound 4d]
Return: 9.37

Enquiry: Give IC50 (HepG2 cells (hepatocellular carcinoma)) of the following molecule: N#Cc1ccc(C=NNC(=O)CSc2nc3ccccc3o2)cc1 (mixture of isomers) [Compound 4c]
Return: 34.5

Enquiry: Give IC50 (HepG2 cells (hepatocellular carcinoma)) of the following molecule: O=C(CSc1nc2ccccc2o1)NN=C1C(=O)Nc2ccccc21 [Compound 5a]
Return: 18

====

Provide the recorded melting point for the entries that follow.

Enquiry: Form field: reported melting point of COc1ccc2c(c1)C(=NNC(=O)CSc1nc3ccccc3o1)C(=O)N2
Return: 145 to 147 °C

Enquiry: Form field: reported melting point of O=C(CSc1nc2ccccc2o1)NN=C1C(=O)Nc2ccccc21
Return: 223 to 225 °C

Enquiry: Form field: reported melting point of O=C(CSc1nc2ccccc2o1)NN=C1C(=O)Nc2ccc(Cl)cc21
Return: 264 to 267 °C

Enquiry: Form field: reported melting point of Cc1ccc2c(c1)C(=NNC(=O)CSc1nc3ccccc3o1)C(=O)N2
Return: 230 to 233 °C

Enquiry: Form field: reported melting point of N#Cc1ccc(C=NNC(=O)CSc2nc3ccccc3o2)cc1 (mixture of isomers)
Return: 246 to 248 °C
